measurement_protocol: Therapeutic index, ratio of IC50 for human RWPE1 cells to IC50 for human DU145 cells
Type: cell-based
measurement_parameters: RWPE1 cells versus DU145 cells, read-out: Ratio IC50
Criterion: selectivity ratio meeting or surpassing 7. Met: 1.0. Not met: 0.0.

[
  {
    "compound": "COc1ccc(NC(=S)N[C@@H]2c3cc4c(cc3[C@@H](c3cc(OC)c(OC)c(OC)c3)[C@H]3C(=O)OC[C@@H]32)OCO4)cc1",
    "label_value": 1.0
  },
  {
    "compound": "COc1ccc(NC(=S)N[C@@H]2c3cc4c(cc3[C@@H](c3cc(OC)c(OC)c(OC)c3)[C@H]3C(=O)OC[C@@H]32)OCO4)c([N+](=O)[O-])c1",
    "label_value": 0.0
  },
  {
    "compound": "CCOC(=O)c1ccc(NC(=S)N[C@@H]2c3cc4c(cc3[C@@H](c3cc(OC)c(OC)c(OC)c3)[C@H]3C(=O)OC[C@@H]32)OCO4)cc1",
    "label_value": 1.0
  },
  {
    "compound": "COc1cc([C@@H]2c3cc4c(cc3[C@@H](NC(=S)Nc3ccccc3C(F)(F)F)[C@H]3COC(=O)[C@H]23)OCO4)cc(OC)c1OC",
    "label_value": 1.0
  },
  {
    "compound": "COc1cc([C@@H]2c3cc4c(cc3[C@@H](NC(=S)Nc3ccc(C(F)(F)F)cc3)[C@H]3COC(=O)[C@H]23)OCO4)cc(OC)c1OC",
    "label_value": 1.0
  },
  {
    "compound": "COc1cc([C@@H]2c3cc4c(cc3[C@@H](O[C@@H]3O[C@@H]5CO[C@@H](C)O[C@H]5[C@H](O)[C@H]3O)[C@H]3COC(=O)[C@H]23)OCO4)cc(OC)c1O [ETOPOSIDE]",
    "label_value": 0.0
  }
]

---

System: HGC
measurement_protocol: Cytotoxicity against human HGC cells at 100 uM after 48 hrs by MTT assay
Format: functional, cell-based
The source made the active and inactive calls. No cut-off for these calls is given here.

[
  {
    "molecule_smiles": "COc1cc(NC(=S)N[C@@H]2c3cc4c(cc3[C@@H](c3cc(OC)c(OC)c(OC)c3)[C@H]3C(=O)OC[C@@H]32)OCO4)ccc1[N+](=O)[O-]",
    "Activity": "inactive"
  },
  {
    "molecule_smiles": "COc1cc([C@@H]2c3cc4c(cc3[C@@H](NC(=S)Nc3ccc(C#N)cc3)[C@H]3COC(=O)[C@H]23)OCO4)cc(OC)c1OC",
    "Activity": "inactive"
  },
  {
    "molecule_smiles": "COc1cc(NC(=S)N[C@@H]2c3cc4c(cc3[C@@H](c3cc(OC)c(OC)c(OC)c3)[C@H]3C(=O)OC[C@@H]32)OCO4)cc(OC)c1",
    "Activity": "inactive"
  }
]
